The origin of these recorded values is patent US20100173888A1.

# Tested System: human recombinant H-PGDS (Homo sapiens, UniProt O60760)
# Sequence (O60760 whole entry): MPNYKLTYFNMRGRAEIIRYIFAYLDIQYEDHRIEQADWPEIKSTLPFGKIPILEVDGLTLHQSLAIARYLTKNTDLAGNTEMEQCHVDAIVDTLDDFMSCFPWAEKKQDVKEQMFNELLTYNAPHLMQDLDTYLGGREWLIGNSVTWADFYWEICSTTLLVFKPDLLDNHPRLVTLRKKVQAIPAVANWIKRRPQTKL
# Experiment Notes: Fluorescence intensity h-PGDS TBA enzyme assay (PGH2 depletion, MDA/TBA fluorescence)
# Assay type: biochemical
# Conditions Used: 1:175,000 human recombinant H-PGDS, 42 second reaction, 3-fold serial dilutions, highest concentration typically 1 μM
Measure: pIC50
Keep in mind that pIC50 stands for -log10 of concentration in molar terms.

Please give the measured pIC50 for this compound: CN(C(=O)[C@@H]1CCC[C@H](NC(=O)c2ccc(-c3cccc(F)c3)nc2)C1)C1CCNCC1 (stereo in doubt)
7.82

Please give the measured pIC50 for this compound: Cc1noc(C[C@H]2CC[C@H](NC(=O)c3ccc(-c4cccc(F)c4)nc3)CC2)n1
8.40

Please give the measured pIC50 for this compound: O=C(N[C@H]1CCC[C@@H](C(=O)N2CCC(O)CC2)C1)c1ccc(-c2cccc(F)c2)nc1
7.22

Please give the measured pIC50 for this compound: O=C(N[C@H]1CCC[C@H](CO)C1)c1ccc(-c2cccc(F)c2)nc1 (relative stereo)
7.58
